molecular target: T1, soluble form of the Variant-specific Surface Glycoprotein (sVSG) of T. b. brucei AnTat1.1 (Trypanosoma brucei brucei AnTat1.1, UniProt P06015); test: SPR; BIAcore T100; 1000-1500 RU soluble AnTat1.1 VSG amine-coupled on a CM5 chip; Nanobody 500 to 7.8 nM at 30 µl/min in HBS (10 mM Hepes pH 7.5, 150 mM NaCl, 3.5 mM EDTA, 0.005% Tween-20); 1:1 binding model with local Rmax; conditions: both partners purified
T1 construct: Variant-specific Surface Glycoprotein (VSG) of Trypanosoma brucei brucei AnTat1.1, soluble form (sVSG); Glycoprotein; amine-coupled to a CM5 chip for SPR; also called AnTat1.1 sVSG; soluble AnTat1.1 VSG
assay-endpoint: koff (s⁻¹)
Give bare numbers, in s⁻¹.

Hi there! I need koff for each item below, if you can.
1. Nb_An33mut3 (VHH, Conjugated with Alexa Fluor 488 for flow cytometry; source: E. coli WK6, purified (Ni-NTA, Superdex 75 gel filtration)) VHH: DVQLVESGGGSVQAGGSLRLSCAVSGSTYSPCTTGWYRQAPGKEREWVSSISSPGTIYYQDSVKGRFTISRDNAKNTVYLQMNSLQREDTGMYYCQIQCGNDCILEYWGQGTQVTVSS
2. Nanobody 33 (Nb_An33), wildtype (VHH) VHH: DVQLVESGGGSVQAGGSLRLSCAVSGSTYSPCTTGWYRQAPGKEREWVSSISSPGTIYYQDSVKGRFTISRDNAKNTVYLQMNSLQREDTGMYYCQIQCGVRSIREYWGQGTQVTVSS
3. Nb_An33mut1 (VHH, Conjugated with Alexa Fluor 488 for flow cytometry; source: E. coli WK6, purified (Ni-NTA, Superdex 75 gel filtration)) VHH: DVQLVESGGGSVQAGGSLRLSCAVSGRALSPCTTGWYRQAPGKEREWVSSISSPGTIYYQDSVKGRFTISRDNAKNTVYLQMNSLQREDTGMYYCQIQCGVRSIREYWGQGTQVTVSS
4. Nb_An33hum1 (VHH) VHH: DVQLVESGGGSVQAGGSLRLSCAVSGSTYSPCTTGWVRQAPGKEREWVSSISSPGTIYYQDSVKGRFTISRDNAKNTVYLQMNSLQREDTGMYYCQIQCGVRSIREYWGQGTQVTVSS
5. Nb_An33hum3 (VHH) VHH: DVQLVESGGGSVQAGGSLRLSCAVSGSTYSPCTTGWYRQAPGKGLEWVSSISSPGTIYYQDSVKGRFTISRDNAKNTVYLQMNSLQREDTGMYYCQIQCGVRSIREYWGQGTQVTVSS
6. Nb_An33hum2 (VHH) VHH: DVQLVESGGGSVQAGGSLRLSCAVSGSTYSPCTTGWVRQAPGKGLEWVSSISSPGTIYYQDSVKGRFTISRDNAKNTVYLQMNSLQREDTGMYYCQIQCGVRSIREYWGQGTQVTVSS

## Output
[0.066, 0.021, 0.042, 0.264, 0.016, 0.15]

## Input For Nb_An33mut2 (VHH, Conjugated with Alexa Fluor 488 for flow cytometry; source: E. coli WK6, purified (Ni-NTA, Superdex 75 gel filtration)) VHH: DVQLVESGGGSVQAGGSLRLSCAVSGSTYSPCTTGWYRQAPGKEREWVSSISSPGTIYYQDSVKGRFTISRDNAKNTVYLQMNSLQREDTGMYYCQIQCGFVNINEYWGQGTQVTVSS , what is its reported koff?
## Output 0.227

The measurements presented in this section are drawn from paper PMC3499403.
